System: UACC-62 melanoma
Test: NCI tumour cell line growth inhibition, 48 h
assay-endpoint: GI50

Some entries whose results are on file:
Would you kindly share the measured GI50 for Oc1ccc(C(c2ccc(O)cc2)c2ccc(Br)cn2)cc1 ? 3.71 µM

Would you kindly share the measured GI50 for C[CH2][Sn]([CH2]C)([O]C(=O)c1ccccc1OC)[O][Sn]([CH2]C)([CH2]C)[O]C(=O)c1ccccc1OC ? > 100 µM

--- query ---
Would you kindly share the measured GI50 for O=C(CCCCCCN1CC(=O)N2[C@@H](c3ccc(Cl)c(Cl)c3)c3[nH]c4ccccc4c3C[C@H]2C1=O)NO ? 1.66 µM

* * *

I'd be grateful if you could share measured TGI for these entries.
System: M14 melanoma
Experiment: NCI tumour cell line growth inhibition, 48 h

Some entries whose results are on file:
Would you kindly share the measured TGI for OC(C#Cc1ccccc1)(c1ccccc1)c1ccccc1 ? > 100 µM

Would you kindly share the measured TGI for CCCCc1ccc(-n2sc3ncc(C)cc3c2=O)cc1 ? 29.4 µM

Would you kindly share the measured TGI for COC(=O)C1=C(OC(=O)/C(=C/c2ccc(Cl)cc2)c2ccc(Cl)cc2)C(C(=O)OC)[C@]2(O)[C@@H](C(=O)OC)[C@H]1C[C@@H](c1ccccc1)[C@@H]2C(=O)OC (stereo not given in full) ? > 100 µM

Would you kindly share the measured TGI for CCOC(=O)/C(C#N)=C(O)/C(=C\c1ccc(Br)cc1)NC(=O)c1ccccc1 ? > 100 µM

Would you kindly share the measured TGI for Nc1ncnc2oc(C3OC(COC(=O)c4ccccc4)C(OC(=O)c4ccccc4)C3OC(=O)c3ccccc3)nc12 (stereo not given) ? > 100 µM

Can you give me TGI for all of these, one by one?
1. COc1ccc(NC(=O)C2CCC(CNS(=O)(=O)c3ccccc3)CC2)cc1OC (stereo not given)
2. NC1CC(=O)c2c1sc(Cl)c2Cl (stereo not given)
3. O[C@@]12Cc3c([nH]c4ccccc34)[C@@H]3Oc4cccc5c4[C@@]31CCN(CC1CC1)[C@@H]2C5
4. Nc1ccc2c(c1)nc1n2C(c2c(F)cccc2F)SC1 (stereo not given)
5. Nc1nc(Nc2ccccc2)c2[nH]cnc2n1

> 100 µM
> 100 µM
39.4 µM
> 100 µM
> 100 µM

* * *

Test system: UACC-62 melanoma
Assay: NCI tumour cell line growth inhibition, 48 h
assay-endpoint: TGI

Would you kindly share the measured TGI for CC(=O)C1=CN=C2C(=O)N(c3ccccc3)N(C)C12C (stereo not drawn) ? > 100 µM

Can you give me TGI for all of these, one by one?
1. COCOCC/C=C/C=O
2. C[N+]12C=CC=C1C(N1CCCC1)c1scc(-c3ccccc3)c12 (stereo not drawn)

["> 100 µM", "> 100 µM"]

* * *

I'd be grateful if you could share measured TGI for these entries.
Test system: NCI-H23 lung
Assay: NCI tumour cell line growth inhibition, 48 h

Some entries whose results are on file:
What TGI appears in the records for this compound with NCI-H23 lung? CC1CN=C(N(Cc2ccccc2)C(=O)Nc2ccc(Cl)c(Cl)c2)S1 (stereo not drawn) > 100 µM

What TGI appears in the records for this compound with NCI-H23 lung? c1cnc2c(c1)ccc1cccnc12 > 100 µM

***
What TGI appears in the records for this compound with NCI-H23 lung? O=C(O)Cc1cccnc1 > 100 µM

* * *

Test system: UO-31 renal
Assay: NCI tumour cell line growth inhibition, 48 h
I'd be grateful if you could share measured TGI for these entries.

Would you kindly share the measured TGI for CN(C)C(=NCc1ccccc1)NC#N ? > 100 µM

Can you give me TGI for all of these, one by one?
1. CC12C=CC(=O)C=C1CCC1C3CCC(O)(C(=O)CO)C3(C)CC(O)C12F (centres undefined)
2. COc1ccc(OC)c(CNc2ccc(C(=O)O)cc2)c1
3. N[C@H](C(=O)O)[C@@H]1CC(Br)=NO1

["> 100 µM", "> 100 µM", "> 100 µM"]

* * *

System: SK-OV-3 ovarian
Experiment: NCI tumour cell line growth inhibition, 48 h
I'd be grateful if you could share measured TGI for these entries.
Answers are plain numbers, in µM.

Can you give me TGI for all of these, one by one?
1. O=[N+]([O-])/C(C(Cl)=C(Cl)Cl)=C(/Cl)SCc1ccccc1
2. CSc1nc2sc3c(c2c(=O)n1-c1ccc(C(C)C)cc1)CCC(=O)C3
3. COC(=O)[C@H]1CCCN1C(=O)[C@H]1CCCN1C(=O)[C@@H](Cc1c[nH]c2ccccc12)NC(=S)Nc1cc(C(F)(F)F)cc(C(F)(F)F)c1
4. CCC1(O)C(=O)OCc2c1cc1n(c2=O)Cc2cc3c(NC(=O)CN)cccc3nc2-1 (stereo unspecified)

1. 35.6
2. 6.92
3. 10.1
4. 31.3

* * *

Tested on: KM12 colon
Assay: NCI tumour cell line growth inhibition, 48 h
I'd be grateful if you could share measured TGI for these entries.

Some entries whose results are on file:
Would you kindly share the measured TGI for CC(=O)OCCOCNC(=S)N/N=C/c1cc(Br)cs1 ? > 100 µM

Would you kindly share the measured TGI for CC(C)(C)C1=CC(C)(n2[nH]c(=O)n(-c3ccccc3)c2=O)C=C(C(C)(C)C)C1=O ? > 100 µM

Would you kindly share the measured TGI for Cc1cc(N(CCCNc2ccnc3cc(Cl)ccc23)Cc2ccco2)nc(N2CCN(C)CC2)n1 ? 16.7 µM

Would you kindly share the measured TGI for C/C(=C\CBr)CCC(Br)C(C)(C)Cl (stereo not given) ? > 100 µM

--- query ---
Would you kindly share the measured TGI for COc1cc2c(cc1OC)-c1ncc3c(OC)c(OC)c(OC)cc3c1C2 ? > 100 µM

* * *

System: DU-145 prostate
Experiment: NCI tumour cell line growth inhibition, 48 h
I'd be grateful if you could share measured TGI for these entries.

Would you kindly share the measured TGI for COC1=C(OC)C(=O)C(SC/C=C(\C)CCCC(C)CCCC(C)CCCC(C)C)=CC1=O (stereo not drawn) ? > 100 µM

Would you kindly share the measured TGI for O=C(CCCCCCN1CC(=O)N2[C@@H](c3ccc(Cl)c(Cl)c3)c3[nH]c4ccccc4c3C[C@H]2C1=O)NO ? 15.3 µM

Would you kindly share the measured TGI for NNC(=O)c1c(-c2cccnc2)cnc2ccccc12 ? > 100 µM

Can you give me TGI for all of these, one by one?
1. C[C@]12CC[C@@H]3c4cc(OC(F)F)c(OS(N)(=O)=O)cc4CC[C@H]3[C@@H]1CC[C@@H]2O
2. COc1ccc(/C=N/n2c(C)n[nH]c2=O)c(OC)c1

> 100 µM
> 100 µM

Can you give me TGI for all of these, one by one?
1. CCCCc1ccc(-n2sc3ncc(C)cc3c2=O)cc1
2. O=CNCNCCO
3. CC1=C(CC(=O)c2cccc([N+](=O)[O-])c2)C(=O)c2ccccc2C1=O

1: > 100 µM; 2: > 100 µM; 3: 20.1 µM

Can you give me TGI for all of these, one by one?
1. Cc1cccc2c3c(sc12)C(c1ccc(Cl)cc1)C(C#N)=C(N)O3 (stereo not drawn)
2. C/C(=C\c1cnc(C)s1)[C@@H]1C[C@@H]2O[C@@H]2CCC[C@H](C)[C@H](O)[C@@H](C)C(=O)C(C)(C)[C@@H](O)CC(=O)O1
3. Nc1nc(Nc2ccccc2SSc2ccccc2Nc2nc(N)nc(C(Cl)(Cl)Cl)n2)nc(C(Cl)(Cl)Cl)n1
4. COc1ccc(/C(Br)=C2\OC(=O)c3ccccc32)cc1

11.6 µM
> 100 µM
24.4 µM
> 10 µM

Would you kindly share the measured TGI for COc1ncnc(NS(=O)(=O)c2ccc(N=C3C(=O)N(CN4CCN(c5c(F)cc6c(=O)c(C(=O)O)cn(C7CC7)c6c5OC)CC4C)c4ccc(Br)cc43)cc2)c1OC (stereo not drawn) ? 37.3 µM

* * *

Test system: ACHN renal
Assay: NCI tumour cell line growth inhibition, 48 h
I'd be grateful if you could share measured GI50 for these entries.

Would you kindly share the measured GI50 for CCCCCO/N=C\c1c2c(O)c3c(O)c(C)c4c(c3c1O)C(=O)C(C)(O/C=C\C(OC)C(C)C(OC(C)=O)C(C)C(O)C(C)C(O)C(C)/C=C\C=C(\C)C(=O)N2)O4 (stereo unspecified) ? 1800 nM

Would you kindly share the measured GI50 for O=C(/C=C/c1cccc(O)c1)c1cccc(-n2cc(-c3ccccc3)[nH]c2=O)c1 ? 2720 nM

Would you kindly share the measured GI50 for COc1cc(/C=C/C(=O)c2cccc(-n3cc(-c4ccc(Cl)cc4)[nH]c3=O)c2)cc(OC)c1OC ? 7170 nM

Can you give me GI50 for all of these, one by one?
1. CCc1cccc(C)c1NC(=O)c1sc2nc3c(cc2c1N)C(=O)CCC3
2. COC(=O)[C@H]1CCCN1C(=O)[C@H]1CCCN1C(=O)[C@@H](Cc1c[nH]c2ccccc12)NC(=S)Nc1cc(C(F)(F)F)cc(C(F)(F)F)c1
3. COc1ccc(-c2nc(/C=C3\SC(=NCc4ccccc4)NC3=O)c3ccccn23)cc1

1. 872 nM
2. 2510 nM
3. 1340 nM
